measure: melting point

Find the measured melting point of "COCc1c(C(=O)OC)c2cc(O)ccc2n1C" and report it.
168 to 170 °C

Find the measured melting point of COc1ccc2c(c1)C1(CC#N)CCC(=O)C=C1CC2 (stereo not drawn) and report it.
133 to 134 °C

Find the measured melting point of "CN(C)c1ccc([N+](=O)[O-])c(C#N)c1" and report it.
174 to 175 °C

Find the measured melting point of "CCN1c2ncc(C=O)cc2C(=O)N(C)c2ccc(Cl)nc21" and report it.
199 to 201 °C

Find the measured melting point of CCN(CC)C(=O)c1ccc(CCCCOCCCCCCN(Cc2ccccc2)CC(O)c2ccc(O)c3[nH]c(=O)ccc23)cc1 (stereo not drawn) and report it.
101 to 103 °C

Find the measured melting point of "O=C(Nc1ccc(OCCN2CCOCC2)c2ccccc12)c1cccc(-n2cccc2)c1" and report it.
142 to 143 °C

Find the measured melting point of "Cn1c(Oc2ccc(N=C=S)cc2)nc2ccccc21" and report it.
59 to 61 °C

Find the measured melting point of C=C(C)COC1CC2C3CCC4=CC(=O)CCC4(C)C3(F)C(O)CC2(C)C1(O)C(=O)CO (stereo not drawn) and report it.
213 to 215 °C

###

Task for the reader: assign each of the following compounds its reported melting point.

Find the measured melting point of NC(=O)C1=NN(c2cccc(COCC(F)(F)C(F)(F)F)c2)C(c2ccccc2)N1 (stereo not drawn) and report it.
146 to 148 °C

Find the measured melting point of "COC(OC)c1cnc(C)nc1N" and report it.
102 to 104 °C

Find the measured melting point of CSC(C(=O)N(C)C)c1cccc(C(=O)c2ccccc2)c1N (stereo not drawn) and report it.
153 to 155 °C

Find the measured melting point of CS(=O)c1ccc(-n2cnc3ccc(-c4nnc(CC(F)(F)F)o4)cc32)cc1 (stereo not drawn) and report it.
184 to 185 °C

Find the measured melting point of "CC(=O)c1cn(C)c2ccc(C)cc12" and report it.
119 to 121 °C

Find the measured melting point of "CCOc1cc2ncc(C#N)c(Nc3ccc(Sc4nccn4C)c(Cl)c3)c2cc1OCC" and report it.
285 to 290 °C

Find the measured melting point of "O=C1c2ccccc2C(=O)N1n1cccc1-c1ccccc1" and report it.
168 to 170 °C

Find the measured melting point of "O=C(O)c1ccc(-c2ccn(-c3ccc(C(F)(F)F)cc3)c2)cc1" and report it.
315 to 317 °C

Find the measured melting point of CCC1(O)C(=O)OCc2c1cc1n(c2=O)Cc2cc3cc(O)ccc3nc2-1 (stereo not drawn) and report it.
230 to 235 °C

Find the measured melting point of "Fc1ccc(C(c2ccc(F)cc2)C2CCN(CCCOc3c(Cl)cccc3Cl)CC2)cc1" and report it.
102 to 103 °C

Find the measured melting point of COc1cc2c(cc1OCc1ccccc1)C(Sc1ccc(Cl)cc1)(C(N)=CC(=O)OC(C)(C)C)C2 (stereo not drawn) and report it.
112 to 115 °C

Find the measured melting point of CCCCc1ccnc(C2(C(=S)NC)CCCS2)c1 (stereo not drawn) and report it.
102 °C

Find the measured melting point of "O=C(NNC(=O)c1cccc([N+](=O)[O-])c1)c1cccc([N+](=O)[O-])c1" and report it.
245 °C
